Catalogue of compounds with associated pEC50
Biological target: human ferroportin (Homo sapiens)
Construct: luciferase reporter (read with the Nano-Glo Luciferase Assay System); expressed in transfected cells; host or cells: CHO cells, stably transfected, expression induced with doxycycline
Sequence (Q9NP59 1-571): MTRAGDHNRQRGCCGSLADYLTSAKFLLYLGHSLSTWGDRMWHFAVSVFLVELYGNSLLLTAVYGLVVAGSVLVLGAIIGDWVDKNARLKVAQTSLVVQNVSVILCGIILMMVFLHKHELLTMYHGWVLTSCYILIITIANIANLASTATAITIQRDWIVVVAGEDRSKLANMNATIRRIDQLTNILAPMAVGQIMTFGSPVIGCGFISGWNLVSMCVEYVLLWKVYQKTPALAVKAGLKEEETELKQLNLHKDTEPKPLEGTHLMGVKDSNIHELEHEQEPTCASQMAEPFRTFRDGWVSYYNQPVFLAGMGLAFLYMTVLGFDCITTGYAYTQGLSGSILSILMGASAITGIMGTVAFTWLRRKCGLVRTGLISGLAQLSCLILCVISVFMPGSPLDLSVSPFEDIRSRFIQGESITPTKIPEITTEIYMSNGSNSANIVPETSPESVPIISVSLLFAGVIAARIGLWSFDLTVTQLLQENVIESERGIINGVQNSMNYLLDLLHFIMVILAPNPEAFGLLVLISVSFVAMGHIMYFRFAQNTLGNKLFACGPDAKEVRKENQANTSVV
Test: Biological in-vitro ferroportin internalization assay (luciferase reporter)
Format: cell-based
Details: average pEC50; stably-transfected CHO cell line expressing human ferroportin tagged to a luciferase reporter; 6 h incubation with test compound

Record excerpt, results attached:
Compound: CN(CC(=O)NC(C)(C)C)c1nc(-c2cc(F)ccn2)nc2c1CCC2 [Compound 58]
pEC50: 6.7
--
Compound: c1ccc(-c2nc3c(c(N4CCCCCC4)n2)CCC3)nc1 [Compound 92]
pEC50: 6.5
--
Compound: CNCCOc1ccnc(-c2nc3c(c(N(C)CC(=O)NC(C)(C)C)n2)CCC3)c1 [Compound 419]
pEC50: 7.6

### Prompt Query: pEC50; subject: Cc1ccc(NC(=O)CN(C)c2nc(-c3cc(OC4COC4)ccn3)nc3c2CCC3)cc1 [Compound 326]
### Response 7.9

### Prompt Consider next the compound CC(C)[C@@H](C(=O)NC(C)(C)C)N(C)c1nc(-c2ccccn2)nc2c1CCC2 [Compound 115] in the same way.
### Response 7.1

### Prompt Consider next the compound CN(CC(=O)NC(C)(C)C)c1nc(-c2cc(OC[C@@H](O)CO)ccn2)nc2c1CCC2 [Compound 451] in the same way.
### Response 7.8

### Prompt Consider next the compound CN(C)c1ccnc(-c2nc3c(c(N(C)CC(=O)NC(C)(C)C)n2)CCC3)c1 [Compound 102] in the same way.
### Response 7.1
